# EXPERIMENTAL TARGET: angiotensin II receptor (rat uterine membranes)
# MEASUREMENT DESCRIPTION: Angiotensin II binding assay (125I-angiotensin II, rat uterine membranes)
# CONDITION DESCRIPTION: meaning not explained
# Procedure: Other chemicals were obtained from Sigma Chemical Co. Rat uterine membranes were prepared from fresh tissue. All procedures were carried out at 4° C. […] The reaction was initiated by the addition of 50 μg of membrane protein and the mixture was incubated at 25° C. for 30 min. […] Filters were assayed for radioactivity in a Micromedic gamma counter. […] Specific binding was calculated as total binding minus nonspecific binding. Binding data was analyzed by a nonlinear least-squares curve fitting program.
METRIC: IC50 (µM)

CCCCc1nc2cc(C(=O)O)c(=O)c(COC)cc2n1Cc1ccc(-c2ccccc2C(=O)O)cc1 = 0.39
CCCCc1nc2cc(C)c(=O)c(C)cc2n1Cc1ccc(-c2ccccc2C(=O)O)cc1 = 0.25

(A) CCCc1nc2ccc(=O)ccc2n1Cc1ccc(-c2ccccc2C(=O)O)cc1
(B) CCCCCc1nc2cc(C)c(=O)c(C)cc2n1Cc1ccc(-c2ccccc2C(=O)O)cc1
When their IC50 values are compared, which is larger, A or B ? Write down the label of the entry you select.
A

----------
# EXPERIMENTAL TARGET: angiotensin II receptor (rat uterine membranes)
# MEASUREMENT DESCRIPTION: Angiotensin II binding assay (125I-angiotensin II, rat uterine membranes)
# CONDITION DESCRIPTION: meaning not explained
# Method: Other chemicals were obtained from Sigma Chemical Co. Rat uterine membranes were prepared from fresh tissue. All procedures were carried out at 4° C. […] The reaction was initiated by the addition of 50 μg of membrane protein and the mixture was incubated at 25° C. for 30 min. […] Filters were assayed for radioactivity in a Micromedic gamma counter. […] Specific binding was calculated as total binding minus nonspecific binding. Binding data was analyzed by a nonlinear least-squares curve fitting program.
METRIC: IC50 (nM)

CCCCc1nc2cc(-c3ccccc3)c(=O)c(-c3ccccc3)cc2n1Cc1ccc(-c2ccccc2C(=O)O)cc1 = 117

(I) CCCc1nc2cc(C(=O)O)c(=O)c(C(=O)O)cc2n1Cc1ccc(-c2ccccc2C(=O)O)cc1
(II) CCCCc1nc2cc(C(C)C)c(=O)c(-c3ccccc3)cc2n1Cc1ccc(-c2ccccc2C(=O)O)cc1
(III) CCCc1nc2ccc(=O)c(Cc3ccccc3)cc2n1Cc1ccc(-c2ccccc2C(=O)O)cc1
Order the records so the highest IC50 appears first and the lowest last. Answer format: list of labels, ordered as asked.
I, II, III

----------
# EXPERIMENTAL TARGET: angiotensin II receptor (rat uterine membranes)
# MEASUREMENT DESCRIPTION: Angiotensin II binding assay (125I-angiotensin II, rat uterine membranes)
# CONDITION DESCRIPTION: IC50; 125I-AII, rat uterine membranes, 25° C., 30 min
pIC50: −log10 of the molar value.
METRIC: pIC50

These recorded examples may help you get a feel for the data.
CCCCCc1nc2cc(C)c(=O)c(C)cc2n1Cc1ccc(-c2ccccc2-c2nn[nH]n2)cc1 = 6.15
CCCc1nc2cc(C(=O)O)c(=O)c(C(=O)O)cc2n1Cc1ccc(-c2ccccc2C(=O)O)cc1 = 5.64
CCCc1nc2ccc(=O)c(Cc3ccccc3)cc2n1Cc1ccc(-c2ccccc2C(=O)O)cc1 = 5.72

(a) CCCCc1nc2cc(C(=O)O)c(=O)c(C(=O)O)cc2n1Cc1ccc(-c2ccccc2C(=O)O)cc1
(b) CCCCc1nc2cc(C)c(=O)c(C)cc2n1Cc1ccc(-c2ccccc2C(=O)O)cc1
(c) CCCCc1nc2ccc(=O)ccc2n1Cc1ccc(-c2ccccc2C(=O)O)cc1
(d) CCCCc1nc2cc(C(=O)O)c(=O)c(COC)cc2n1Cc1ccc(-c2ccccc2C(=O)O)cc1
(e) CCCCc1nc2cc(O)c(=O)c(Cl)cc2n1Cc1ccc(-c2ccccc2C(=O)O)cc1
Order the records so the highest pIC50 appears first and the lowest last. Answer format: list of labels, ordered as asked.
a, b, c, d, e
(a: 6.30, b: 6.10, c: 5.85, d: 5.40, e: 5.15)
